test_protocol: AUC in ICR mouse at 3 mg/kg, po and measured upto 24 hrs by LC-MS/MS analysis
Type: ADME, organism-based
Design: dose 3 mg/kg, time < 24 hrs, route po
experimental_parameters: in vivo
attribute_measured: AUC at 24 h (ng·h/mL)

[I] O=C1CCC(N2C(=O)c3cc4c(cc3C2=O)CN(C2CCN(CC3CCN(c5ccc([C@@H]6c7ccc(O)cc7CC[C@@H]6c6ccccc6)cc5)CC3)CC2)C4)C(=O)N1 (stereo partly drawn)
[II] C[C@@H]1Cc2c(ccc3[nH]ncc23)[C@@H](c2c(F)cc(N3CCC4(CCN(C(=O)CN5Cc6cc7c(cc6C5)C(=O)N(C5CCC(=O)NC5=O)C7=O)CC4)CC3)cc2F)N1CC(F)F (stereo partly drawn)
[III] O=C1CCC(N2C(=O)c3cc4c(cc3C2=O)CN(CC(=O)N2CCC3(CC2)CCN(c2ccc([C@@H]5c6ccc(O)cc6CC[C@@H]5c5ccccc5)cc2)CC3)C4)C(=O)N1 (stereo partly drawn)
Put the items in sequence by AUC at 24 h, from largest down. Please list the labels according to the requested order.
II, I, III

* * *

test_protocol: Clearance in ICR mouse at 1 mg/kg, iv and measured upto 24 hrs by LC-MS/MS analysis
Assay type: ADME, organism-based
experimental_parameters: in vivo
attribute_measured: clearance (mL/min/kg)

{"molecule": "O=C1CCC(N2C(=O)c3cc4c(cc3C2=O)CN(C2CCN(CC3CCN(c5ccc([C@@H]6c7ccc(O)cc7CC[C@@H]6c6ccccc6)cc5)CC3)CC2)C4)C(=O)N1 (stereo partly drawn)", "uom": "mL/min/kg", "readout_number": 14.2}

[A] O=C1CCC(N2C(=O)c3cc4c(cc3C2=O)CN(CC(=O)N2CCC3(CC2)CCN(c2ccc([C@@H]5c6ccc(O)cc6CC[C@@H]5c5ccccc5)cc2)CC3)C4)C(=O)N1 (stereo partly drawn)
[B] C[C@@H]1Cc2c(ccc3[nH]ncc23)[C@@H](c2c(F)cc(N3CCC4(CCN(C(=O)CN5Cc6cc7c(cc6C5)C(=O)N(C5CCC(=O)NC5=O)C7=O)CC4)CC3)cc2F)N1CC(F)F (stereo partly drawn)
Select the item whose clearance value is smaller, choosing between A and B . To answer, give the label that identifies your chosen option.
B

* * *

experimental_system: Protein cereblon/Estrogen receptor (Homo sapiens, UniProt P03372+Q96SW2)
test_protocol: Protac activity at human ERalpha in human MCF7 cells assessed as protein degradation incubated for 12 hrs by ICW blot assay
Assay type: cell-based
Sequence (P03372 whole entry): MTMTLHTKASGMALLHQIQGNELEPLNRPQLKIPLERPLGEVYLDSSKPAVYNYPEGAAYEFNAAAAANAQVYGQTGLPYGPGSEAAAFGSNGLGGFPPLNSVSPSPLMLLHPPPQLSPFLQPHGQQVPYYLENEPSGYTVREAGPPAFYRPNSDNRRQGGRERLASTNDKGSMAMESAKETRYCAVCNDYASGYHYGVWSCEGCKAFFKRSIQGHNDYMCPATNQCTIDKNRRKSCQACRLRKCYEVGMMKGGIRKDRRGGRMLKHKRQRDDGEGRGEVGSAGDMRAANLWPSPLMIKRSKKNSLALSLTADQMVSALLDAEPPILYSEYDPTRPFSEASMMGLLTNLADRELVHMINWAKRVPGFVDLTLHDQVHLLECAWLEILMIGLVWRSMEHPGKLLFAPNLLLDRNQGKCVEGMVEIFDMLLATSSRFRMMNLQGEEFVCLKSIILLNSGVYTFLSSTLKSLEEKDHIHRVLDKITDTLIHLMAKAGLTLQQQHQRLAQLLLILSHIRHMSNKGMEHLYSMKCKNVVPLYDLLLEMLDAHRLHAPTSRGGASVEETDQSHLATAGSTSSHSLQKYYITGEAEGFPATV
Sequence (Q96SW2 whole entry): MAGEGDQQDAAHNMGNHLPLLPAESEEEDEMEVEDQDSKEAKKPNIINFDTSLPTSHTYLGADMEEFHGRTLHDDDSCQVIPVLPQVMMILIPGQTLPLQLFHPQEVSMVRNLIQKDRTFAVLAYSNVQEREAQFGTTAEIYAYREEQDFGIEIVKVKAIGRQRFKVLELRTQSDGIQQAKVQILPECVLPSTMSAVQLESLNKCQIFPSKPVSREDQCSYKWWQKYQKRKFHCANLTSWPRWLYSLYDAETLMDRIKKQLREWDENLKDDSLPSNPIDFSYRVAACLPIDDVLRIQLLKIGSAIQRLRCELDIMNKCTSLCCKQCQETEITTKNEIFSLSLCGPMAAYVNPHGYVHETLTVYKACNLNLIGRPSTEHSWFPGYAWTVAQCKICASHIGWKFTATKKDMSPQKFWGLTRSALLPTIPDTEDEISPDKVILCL
attribute_measured: DC50 (nM)

A selection of reference data follows.
{"compound": "O=C1CCC(N2C(=O)c3cc4c(cc3C2=O)CN(CC(=O)N2CCC3(CC2)CN(c2ccc([C@@H]5c6ccc(O)cc6CC[C@@H]5c5ccccc5)cc2)C3)C4)C(=O)N1 (stereo partly specified)", "attribute_measured": "DC50", "readout_number": 1.8}
{"compound": "O=C1CCC(N2C(=O)c3cc4c(cc3C2=O)CN(CC2CCN(C(=O)C3CN(c5ccc([C@@H]6c7ccc(O)cc7CC[C@@H]6c6ccccc6)cc5)C3)CC2)C4)C(=O)N1 (stereo partly specified)", "attribute_measured": "DC50", "readout_number": 32}
{"compound": "O=C1CCC(N2C(=O)c3cc4c(cc3C2=O)CN(CC2CN(C(=O)C3CCN(c5ccc([C@@H]6c7ccc(O)cc7CC[C@@H]6c6ccccc6)cc5)CC3)C2)C4)C(=O)N1 (stereo partly specified)", "attribute_measured": "DC50", "readout_number": 6}
{"compound": "C[C@@H]1Cc2c(ccc3[nH]ncc23)[C@@H](c2ccc(N3CCC4(CCN(C(=O)CN5Cc6cc7c(cc6C5)C(=O)N(C5CCC(=O)NC5=O)C7=O)CC4)CC3)cn2)N1CC(F)F (stereo partly specified)", "attribute_measured": "DC50", "readout_number": 14}

[a] COc1cc(N2CCC3(CCN(C(=O)CN4Cc5cc6c(cc5C4)C(=O)N(C4CCC(=O)NC4=O)C6=O)CC3)CC2)ccc1[C@@H]1c2ccc3[nH]ncc3c2C[C@@H](C)N1CC(F)F (stereo partly specified)
[b] O=C1CCC(N2C(=O)c3cc4c(cc3C2=O)CN(CCCCC2CCN(c3ccc([C@@H]5c6ccc(O)cc6CC[C@@H]5c5ccccc5)cc3)CC2)C4)C(=O)N1 (stereo partly specified)
Select the item whose DC50 value is smaller, choosing between a and b . To answer, give the label that identifies your chosen option.
a
(a: 1.4 nM, b: 236 nM)

* * *

test_protocol: in vivo
experimental_parameters: Sprague-Dawley, rat, po, 3 mg/kg
attribute_measured: Cmax at 24 h (ng/mL)

{"molecule": "CN1Cc2cc3c(cc2C1)C(=O)N(C1CCC(=O)NC1=O)C3=O (centres undefined)", "Cmax at 24 h / ng/mL": 228}
{"molecule": "O=C1CCC(N2C(=O)c3cc4c(cc3C2=O)CN(C2CCN(CC3CCN(c5ccc([C@@H]6c7ccc(O)cc7CC[C@@H]6c6ccccc6)cc5)CC3)CC2)C4)C(=O)N1 (some centres undefined)", "Cmax at 24 h / ng/mL": 54.6}

[a] O=C1CCC(N2C(=O)c3cc4c(cc3C2=O)CN(CC(=O)N2CCC3(CC2)CCN(c2ccc([C@@H]5c6ccc(O)cc6CC[C@@H]5c5ccccc5)cc2)CC3)C4)C(=O)N1 (some centres undefined)
[b] O=C1CCC(N2C(=O)c3cc4c(cc3C2=O)CN(C2CCN(C(=O)C3CCN(c5ccc([C@@H]6c7ccc(O)cc7CC[C@@H]6c6ccccc6)cc5)CC3)CC2)C4)C(=O)N1 (some centres undefined)
Select the item whose Cmax at 24 h value is smaller, choosing between a and b . To answer, give the label that identifies your chosen option.
b

* * *

experimental_system: Cytochrome P450 3A4 (Homo sapiens, UniProt P08684)
Sequence (P08684 whole entry): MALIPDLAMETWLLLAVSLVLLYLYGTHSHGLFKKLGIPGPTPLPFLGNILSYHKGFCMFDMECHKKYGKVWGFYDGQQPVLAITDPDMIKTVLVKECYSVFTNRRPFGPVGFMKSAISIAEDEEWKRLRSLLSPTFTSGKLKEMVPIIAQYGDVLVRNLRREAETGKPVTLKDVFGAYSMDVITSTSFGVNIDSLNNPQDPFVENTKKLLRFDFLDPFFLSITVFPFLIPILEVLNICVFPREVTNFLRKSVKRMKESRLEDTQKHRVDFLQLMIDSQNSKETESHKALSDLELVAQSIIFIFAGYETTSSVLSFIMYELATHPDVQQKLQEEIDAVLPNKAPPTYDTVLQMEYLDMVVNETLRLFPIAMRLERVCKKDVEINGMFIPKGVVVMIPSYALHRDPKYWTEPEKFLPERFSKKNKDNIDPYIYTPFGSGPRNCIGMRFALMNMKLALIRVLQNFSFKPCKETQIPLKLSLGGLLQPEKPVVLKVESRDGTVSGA
test_protocol: Inhibition of CYP3A4 in human liver microsomes using midazolam as substrate preincubated for 5 mins followed by NADPH addition and measured after 10 mins by LC-MS/MS analysis
Assay type: ADME, Microsome
attribute_measured: IC50

Query C[C@@H]1Cc2c(ccc3[nH]ncc23)[C@@H](c2c(F)cc(N3CCC4(CCN(C(=O)CN5Cc6cc7c(cc6C5)C(=O)N(C5CCC(=O)NC5=O)C7=O)CC4)CC3)cc2F)N1CC(F)F (stereo partly specified) yields IC50 of > 10 µM

* * *

experimental_system: Protein cereblon/Estrogen receptor (Homo sapiens, UniProt P03372+Q96SW2)
test_protocol: Protac activity at human ERalpha in human MCF7 cells assessed as induction of ERalpha degradation by measuring maximum efficacy at 1 uM incubated for 12 hrs by ICW blot assay relative to control
Type: cell-based
Sequence (P03372 whole entry, looked up): as the sequence (P03372 whole entry) above
Sequence (Q96SW2 whole entry, looked up): as the sequence (Q96SW2 whole entry) above
attribute_measured: Emax (%)

{"compound": "O=C1CCC(N2C(=O)c3cc4c(cc3C2=O)CN(CC(=O)N2CCCC3(CCN(c5ccc([C@@H]6c7ccc(O)cc7CC[C@@H]6c6ccccc6)cc5)CC3)C2)C4)C(=O)N1 (stereo partly drawn)", "Emax / %": 58}

[I] O=C1CCC(N2C(=O)c3cc4c(cc3C2=O)CN(CC(=O)N2CC3(CCN(c5ccc([C@@H]6c7ccc(O)cc7CC[C@@H]6c6ccccc6)cc5)CC3)C2)C4)C(=O)N1 (stereo partly drawn)
[II] O=C1CCC(N2C(=O)c3cc4c(cc3C2=O)CN(CC(=O)N2CCC3(C2)CN(c2ccc([C@@H]5c6ccc(O)cc6CC[C@@H]5c5ccccc5)cc2)C3)C4)C(=O)N1 (stereo partly drawn)
Endpoint returns whichever of I and II has the numerically higher Emax. To answer, give the label that identifies your chosen option.
I

* * *

test_protocol: Drug concentration in tumor of CB17 SCID mouse xenografted with human MCF7 cells harboring wild type ESR1 at 10 mg/kg, po qd for 3 days and measured after 6 hrs last dose by LC-MS/MS analysis
Assay type: ADME, organism-based, Neoplasm
experimental_parameters: time 3 day, read-out: Ct
attribute_measured: concentration at 72 h (ng/mL)
Numbers only here, please. The scale is ng/mL.

Query C[C@@H]1Cc2c(ccc3[nH]ncc23)[C@@H](c2c(F)cc(N3CCC4(CCN(C(=O)CN5Cc6cc7c(cc6C5)C(=O)N(C5CCC(=O)NC5=O)C7=O)CC4)CC3)cc2F)N1CC(F)F (stereo partly specified) yields concentration at 72 h of 385

* * *

test_protocol: Drug concentration in plasma of CB17 SCID mouse xenografted with human MCF7 cells harboring wild type ESR1 at 30 mg/kg, po qd for 3 days and measured after 24 hrs last dose by LC-MS/MS analysis
Assay type: ADME, organism-based
experimental_parameters: time 3 day
attribute_measured: concentration at 72 h (µg/mL)
Numbers only here, please. The scale is µg/mL.

Query C[C@@H]1Cc2c(ccc3[nH]ncc23)[C@@H](c2c(F)cc(N3CCC4(CCN(C(=O)CN5Cc6cc7c(cc6C5)C(=O)N(C5CCC(=O)NC5=O)C7=O)CC4)CC3)cc2F)N1CC(F)F (stereo partly specified) yields concentration at 72 h of 0.08

* * *

test_protocol: Plasma protein binding in mouse
Format: ADME, cell-free
experimental_parameters: read-out: PPB (converted)
attribute_measured: fraction unbound
# print the numeric value only

Query CN1Cc2cc3c(cc2C1)C(=O)N(C1CCC(=O)NC1=O)C3=O (stereo unspecified) yields fraction unbound of 0.737
